# ASSAY REMARKS: Volume of distribution in steady state in mouse at 5 umol/kg, iv
# Format: ADME, organism-based
# CONDITION NOTES: in vivo, read-out: Vdss
PROPERTY LABEL: Vd (L/kg)
Numbers only; they are read as L/kg.

In: Entry CCNC(=O)c1ccc(CN2CCC(c3ccc(C(=O)Nc4ccccc4N)cc3)CC2)cc1 needs its Vd filled in; supply it.
Out: 5

* * *

PROPERTY LABEL: IC50

In: Give IC50 for this entry on UniProtKB P08684: CN(C)C(=O)c1ccc(CN2CCC(c3ccc(C(=O)Nc4ccccc4N)cc3)CC2)cc1
Sequence (P08684 whole entry): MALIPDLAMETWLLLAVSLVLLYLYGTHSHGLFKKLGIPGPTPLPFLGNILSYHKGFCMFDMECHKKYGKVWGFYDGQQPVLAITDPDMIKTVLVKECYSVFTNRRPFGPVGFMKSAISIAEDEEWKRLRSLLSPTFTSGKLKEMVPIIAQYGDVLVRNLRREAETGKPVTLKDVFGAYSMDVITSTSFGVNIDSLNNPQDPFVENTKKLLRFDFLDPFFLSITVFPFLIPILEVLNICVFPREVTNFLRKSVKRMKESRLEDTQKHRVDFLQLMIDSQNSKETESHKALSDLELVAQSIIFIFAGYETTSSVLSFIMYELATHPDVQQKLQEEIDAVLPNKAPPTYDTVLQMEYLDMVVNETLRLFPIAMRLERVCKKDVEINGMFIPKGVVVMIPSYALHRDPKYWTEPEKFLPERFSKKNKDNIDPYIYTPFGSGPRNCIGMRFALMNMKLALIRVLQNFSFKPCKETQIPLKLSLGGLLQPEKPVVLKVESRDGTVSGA
Out: > 10 µM

In: Give IC50 for this entry on UniProtKB P08684: CNC(=O)c1ccc(CN2CCC(c3ccc(C(=O)Nc4ccccc4N)cc3)CC2)cc1
Out: > 10 µM

* * *

# SYSTEM UNDER TEST: Histone deacetylase 1 (Homo sapiens)
# ASSAY REMARKS: Inhibition of human recombinant HDAC1 expressed in Hi5 cells
API: label(entry) gives Met if the entry's IC50 is strictly smaller than 30 nM; on equality or larger values it gives Not met.

In: I wonder whether CN(C)C(=O)c1ccc(CN2CCC(c3ccc(C(=O)Nc4ccccc4N)cc3)CC2)cc1 has IC50 below 30 nM. Can you tell?
Out: Not met

In: I wonder whether CCCNCc1cnc(-c2ccc(C(=O)Nc3ccccc3N)cc2)s1 has IC50 below 30 nM. Can you tell?
Out: Met

In: I wonder whether Nc1ccccc1NC(=O)c1ccc(C2CCN(Cc3ccc(C(=O)NC4CC4)cc3)CC2)cc1 has IC50 below 30 nM. Can you tell?
Out: Not met

In: I wonder whether CCNC(=O)c1ccc(CN2CCC(c3ccc(C(=O)Nc4ccccc4N)cc3)CC2)cc1 has IC50 below 30 nM. Can you tell?
Out: Not met

* * *

Consider the following molecules; for each one, report its Vd.
# ASSAY REMARKS: Volume of distribution in steady state in Han Wistar rat at 5 umol/kg, iv
# Type: ADME, organism-based
# CONDITION NOTES: in vivo, read-out: Vdss
Numbers only; they are read as L/kg.

In: Entry CN(C)C(=O)c1ccc(CN2CCC(c3ccc(C(=O)Nc4ccccc4N)cc3)CC2)cc1 needs its Vd filled in; supply it.
Out: 3.1

In: Entry CCNCc1cnc(-c2ccc(C(=O)Nc3ccccc3N)cc2)s1 needs its Vd filled in; supply it.
Out: 7.3

* * *

# SYSTEM UNDER TEST: Histone deacetylase 1 (Homo sapiens, UniProt Q13547)
# Sequence (Q13547 whole entry): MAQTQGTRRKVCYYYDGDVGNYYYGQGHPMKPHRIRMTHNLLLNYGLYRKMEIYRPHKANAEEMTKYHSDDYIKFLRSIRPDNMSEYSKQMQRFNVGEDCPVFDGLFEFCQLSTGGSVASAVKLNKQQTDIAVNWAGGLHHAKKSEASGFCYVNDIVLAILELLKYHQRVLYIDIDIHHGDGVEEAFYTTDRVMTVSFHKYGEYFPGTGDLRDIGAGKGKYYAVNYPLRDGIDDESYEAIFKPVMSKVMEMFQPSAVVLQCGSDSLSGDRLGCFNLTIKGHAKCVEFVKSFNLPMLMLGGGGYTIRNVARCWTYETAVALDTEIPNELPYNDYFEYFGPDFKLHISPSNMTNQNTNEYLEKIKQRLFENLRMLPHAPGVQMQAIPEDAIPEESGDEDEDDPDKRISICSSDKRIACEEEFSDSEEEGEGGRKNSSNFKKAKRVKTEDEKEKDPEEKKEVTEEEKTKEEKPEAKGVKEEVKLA
# ASSAY REMARKS: Inhibition of human recombinant HDAC1 expressed in Hi5 cells
PROPERTY LABEL: IC50 (nM)
Numbers only; they are read as nM.

In: Entry Nc1ccccc1NC(=O)c1ccc(C2CCN(CCC(=O)Nc3ccccc3F)CC2)cc1 needs its IC50 filled in; supply it.
Out: 67.6

In: Entry Nc1ccccc1NC(=O)c1ccc(-c2ncc(CN3CCCCC3)s2)cc1 needs its IC50 filled in; supply it.
Out: 21.9

In: Entry CCNCc1cnc(-c2ccc(C(=O)Nc3ccccc3N)cc2)s1 needs its IC50 filled in; supply it.
Out: 38

In: Entry CN1CCC(c2ccc(C(=O)Nc3ccccc3N)cc2)CC1 needs its IC50 filled in; supply it.
Out: 138

In: Entry Nc1ccccc1NC(=O)c1ccc(C2CCN(Cc3ccccc3)CC2)cc1 needs its IC50 filled in; supply it.
Out: 44.7
